The origin of these recorded values is patent US10047034B2.

- study.target: Human recombinant HMG-CoA reductase (Homo sapiens)
- Sequence (P04035 426-888 limits assumed): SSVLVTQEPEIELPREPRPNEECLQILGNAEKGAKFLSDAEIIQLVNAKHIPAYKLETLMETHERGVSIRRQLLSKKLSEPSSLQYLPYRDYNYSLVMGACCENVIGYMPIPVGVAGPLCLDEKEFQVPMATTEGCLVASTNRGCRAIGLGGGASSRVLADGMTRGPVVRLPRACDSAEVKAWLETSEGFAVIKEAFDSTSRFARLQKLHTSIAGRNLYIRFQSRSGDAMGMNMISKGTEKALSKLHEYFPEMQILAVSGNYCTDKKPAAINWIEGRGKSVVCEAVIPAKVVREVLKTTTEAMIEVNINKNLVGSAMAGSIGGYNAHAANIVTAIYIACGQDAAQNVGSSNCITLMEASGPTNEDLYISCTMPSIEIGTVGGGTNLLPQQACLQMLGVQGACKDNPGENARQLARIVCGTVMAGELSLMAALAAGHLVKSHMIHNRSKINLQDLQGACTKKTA
- assay.method.text: HMG-CoA reductase inhibition test ([14C]mevalonate formation)
- Type: biochemical
- test.settings: 30 μM; duplicates
endpoint.name: inhibition at 30 µM (%)

- C[C@@H]1CC[C@]2(C(=O)O)CC[C@]3(C)C(=CC[C@@H]4[C@@]5(C)CC[C@@H](O)[C@](C)(CO)[C@@H]5CC[C@]43C)[C@@H]2[C@]1(C)O: 37
- CC[C@H](C)C(=O)O[C@H]1C[C@@H](C)C=C2C=C[C@H](C)[C@H](CC[C@@H]3C[C@@H](O)CC(=O)O3)[C@H]21: 100
- C[C@H]1[C@H](C)CC[C@]2(C(=O)O)CC[C@]3(C)C(=CC[C@@H]4[C@@]5(C)CC[C@H](O)C(C)(C)[C@@H]5CC[C@]43C)[C@H]12: 0
- C[C@@H]1CC[C@]2(C(=O)O)CC[C@]3(C)C(=CC[C@@H]4[C@@]5(C)CC[C@H](O)C(C)(C)[C@@H]5CC[C@]43C)[C@@H]2[C@]1(C)O: 25
